These entries and their values trace back to PubChem BioAssay (NCI).

Test system: NCI-H226 lung
Assay: NCI-60 one-dose screen, 48 h
Settings: 10 µM unless noted
Compounds without any hit were thinned out: in the full panel of roughly 83,000, 20% have a hit. Activity calls are given as the source filed them. Rule for the calls: active = growth percent below 10; inactive = the rest.
Return exactly one item of T (active), F (inactive)

Give the logged outcome of this assay for the following compound: COc1cc2ccc(C(C)=O)cc2cc1OC
F

Give the logged outcome of this assay for the following compound: S=C(S)Oc1cccc2cccnc12
F

Give the logged outcome of this assay for the following compound: CC1(C)CC(=O)c2cc3c(N)c(C(=O)Nc4ccc(Cl)cc4)sc3nc2C1
F

Give the logged outcome of this assay for the following compound: O=C(Nc1ccc([N+](=O)[O-])cc1)c1cc2ccccc2cc1O
T

Others:
Give the logged outcome of this assay for the following compound: Cc1cc(C#Cc2ccc(C(C)(C)C)cc2)ccc1-n1c(/C=C/c2c(Cl)cccc2Cl)nc2ccccc2c1=O
F
